These measurements were taken from paper PMC7616174.

In this section we review reported αβ (functional cooperativity with ACh) values for a set of molecules.
measured target: M1 mAChR (Homo sapiens, UniProt P11229)
Construct: expressed in transfected cells; host or cells: parental FlpIn CHO cells (transient, PEI)
Sequence (P11229 whole entry): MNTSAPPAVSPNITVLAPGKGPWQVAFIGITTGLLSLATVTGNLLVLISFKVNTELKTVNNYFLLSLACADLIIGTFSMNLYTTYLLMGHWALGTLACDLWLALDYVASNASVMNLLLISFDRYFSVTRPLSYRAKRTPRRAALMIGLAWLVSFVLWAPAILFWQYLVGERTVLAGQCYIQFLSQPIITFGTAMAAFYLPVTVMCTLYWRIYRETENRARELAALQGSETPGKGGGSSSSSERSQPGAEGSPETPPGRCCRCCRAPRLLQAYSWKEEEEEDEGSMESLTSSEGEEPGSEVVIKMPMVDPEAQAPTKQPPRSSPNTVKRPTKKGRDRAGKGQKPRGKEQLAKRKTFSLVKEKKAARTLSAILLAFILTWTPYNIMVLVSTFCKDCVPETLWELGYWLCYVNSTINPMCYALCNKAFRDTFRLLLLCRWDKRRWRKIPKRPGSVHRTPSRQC
test protocol: β-arrestin 2 recruitment assay (BRET)
Assay type: cell-based
reported conditions: antilog, in parentheses

Check out these entries, answers already filled in.
>>> print(df.to_string())
                                   molecule  endpoint_result
0  COc1ccc(Cn2cc(C(=O)O)c(=O)c3ccccc32)cc1 [BQCA, reference compound]               89
1  O=c1cc(-c2ccccc2OCc2ccc(-n3cccn3)nc2)ncn1C1CCCCC1O (stereo not shown) [Compound 27b]               56

For the record Cn1cc(-c2ccc(COc3ccccc3-c3cc(=O)n(C4CCCCC4O)cn3)cc2)cn1 (stereo not shown) , what value of αβ (functional cooperativity with ACh) is listed for M1 mAChR (Homo sapiens, UniProt P11229)?
63

Now consider Cn1cc(-c2ccc(COc3ccccc3-c3ccn(C4CCCCC4O)c(=O)c3)cc2)cn1 (stereo not shown) and answer again.
65
